Tested on: NCI-H1975
assay_procedure: cells
Assay type: cell-based
reported_conditions: Homo sapiens; NCI-H1975, 72 hours; read-out: IC50
readout_kind: log10 of IC50 (log10 of the value in µM)
In plain terms, each number is the log10 of measured IC50 in µM.

Problem: What log10 of IC50 value was documented for this molecule, [O-][S+](/C=C/CCN=C=S)c1nnnn1-c1ccccc1 (stereo not drawn) [Compound I-25] ?
Solution: -0.60

Problem: Which log10 of IC50 value belongs to CCC[S+]([O-])/C=C/CCN=C=S (stereo not drawn) [Compound F-01, reference compound] ?
Solution: 0.84

Problem: Look up log10 of IC50: C[S+]([O-])CCCCN=C=S (stereo not drawn) [SFN, sulforaphane, reference compound]
Solution: 1.31

Problem: I have this molecule here, N#Cc1cc([S+]([O-])/C=C/CCN=C=S)cc(C(F)(F)F)c1 (stereo not drawn) [Compound I-08] , and I need its recorded log10 of IC50.
Solution: -0.77

Problem: Please look up its log10 of IC50: [O-][S+](/C=C/CCN=C=S)C1CC1 (stereo not drawn) [Compound F-03, reference compound]
Solution: 0.76

Now consider the entry below.
Problem: Quick one: log10 of IC50 for CS/C=C/CCN=C=S [Compound F-06, reference compound] ?
Solution: 1.24

* * *

Tested on: HMLE-Snail cell line
assay_procedure: Formation of HMLE-Snail cell line spheroids
Assay type: cell-based
reported_conditions: 10 μg/ml, treated for 24 hours; control = 100; read-out: Colony (%): cell colony number of drug-treated group/cell colony number of control group × 100%
readout_kind: activity at 10 µg/mL

Check out these entries, answers already filled in.
Problem: Fill blank: measured activity at 10 µg/mL of the compound C[S+]([O-])CCCCN=C=S (stereo not shown) [SFN, sulforaphane, reference compound] is ____.
Solution: 90%

Problem: Which value of activity at 10 µg/mL has been reported for CC(C)C[S+]([O-])/C=C/CCN=C=S (stereo not shown) [Compound F-04, reference compound] in the records?
Solution: 60 to 65%

Problem: For [O-][S+](/C=C/CCN=C=S)c1nc2cc(C(F)(F)F)ccc2s1 (stereo not shown) [Compound I-21] , what is its reported activity at 10 µg/mL?
Solution: 30 to 35%

Further cases:
Problem: Which activity at 10 µg/mL is reported for this compound? [O-][S+](/C=C/CCN=C=S)c1ccc(N2CCOCC2)cc1 (stereo not shown) [Compound I-09]
Solution: 25 to 30%

Problem: For [O-][S+](/C=C/CCN=C=S)c1ccc(Cl)c(C(F)(F)F)c1 (stereo not shown) [Compound I-03] , what is its reported activity at 10 µg/mL?
Solution: 25 to 30%

Problem: Which measured activity at 10 µg/mL value corresponds to CC(=O)O[C@@]12CO[C@@H]1C[C@H](O)[C@@]1(C)C(=O)[C@H](O)C3=C(C)[C@@H](OC(=O)[C@H](O)[C@@H](NC(=O)OC(C)(C)C)c4ccccc4)C[C@@](O)([C@@H](OC(=O)c4ccccc4)[C@H]21)C3(C)C [Docetaxel, docetaxel] ?
Solution: 81%

Problem: Field request: activity at 10 µg/mL | item: COc1ccc2nc([S+]([O-])/C=C/CCN=C=S)[nH]c2c1 (stereo not shown) [Compound I-24]
Solution: 20 to 25%

* * *

system_tested: XPO1 protein (Homo sapiens, UniProt O14980)
Construct: Sixteen hours later, NES-GFP plasmid was transfected with liposome; endogenous in cells
Sequence (O14980 whole entry, species assumed): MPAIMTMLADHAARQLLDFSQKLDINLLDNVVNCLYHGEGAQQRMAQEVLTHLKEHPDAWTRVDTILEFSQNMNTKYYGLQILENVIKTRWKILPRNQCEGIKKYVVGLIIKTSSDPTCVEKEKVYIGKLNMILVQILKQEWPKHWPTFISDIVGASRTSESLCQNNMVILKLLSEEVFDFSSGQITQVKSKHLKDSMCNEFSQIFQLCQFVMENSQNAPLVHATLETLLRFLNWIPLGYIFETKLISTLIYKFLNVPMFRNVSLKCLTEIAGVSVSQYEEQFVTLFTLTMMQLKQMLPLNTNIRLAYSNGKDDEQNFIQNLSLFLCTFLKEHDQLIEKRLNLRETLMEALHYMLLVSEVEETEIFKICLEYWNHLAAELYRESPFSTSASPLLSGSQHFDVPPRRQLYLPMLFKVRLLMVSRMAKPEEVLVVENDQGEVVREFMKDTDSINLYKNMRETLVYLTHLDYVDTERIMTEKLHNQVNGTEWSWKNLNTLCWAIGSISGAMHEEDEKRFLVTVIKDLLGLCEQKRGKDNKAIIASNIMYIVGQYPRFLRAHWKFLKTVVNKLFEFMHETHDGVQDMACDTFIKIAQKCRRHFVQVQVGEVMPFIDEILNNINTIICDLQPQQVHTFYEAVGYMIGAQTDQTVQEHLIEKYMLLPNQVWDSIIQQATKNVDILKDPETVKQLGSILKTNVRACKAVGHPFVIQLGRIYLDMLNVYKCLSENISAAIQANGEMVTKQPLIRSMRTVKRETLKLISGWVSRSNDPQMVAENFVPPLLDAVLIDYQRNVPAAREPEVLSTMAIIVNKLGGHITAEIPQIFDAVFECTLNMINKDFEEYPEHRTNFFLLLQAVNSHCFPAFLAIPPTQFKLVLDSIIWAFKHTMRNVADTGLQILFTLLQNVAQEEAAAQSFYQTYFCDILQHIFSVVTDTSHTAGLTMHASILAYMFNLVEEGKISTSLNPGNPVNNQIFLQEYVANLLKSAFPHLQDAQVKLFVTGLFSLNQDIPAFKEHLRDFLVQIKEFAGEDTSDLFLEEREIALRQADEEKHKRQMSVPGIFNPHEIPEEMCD
assay_procedure: Inhibitory activity for XPO1 protein (NES-GFP nuclear export, laser confocal microscope)
Assay type: cell-based
reported_conditions: NES-GFP nuclear export, cells treated for 2 hours
Listed compounds paired with reported Activity (μM): inhibitory activity for XPO1 protein (full inhibitory concentration)

Look over these answered cases.
Problem: For the compound shown here, NS(=O)(=O)c1cc([S+]([O-])/C=C/CCN=C=S)cc(C(F)(F)F)c1 (stereo not drawn) , give the reported Activity (μM): inhibitory activity for XPO1 protein (full inhibitory concentration).
Solution: 0.5 to 1 µM

Problem: For the compound shown here, [O-][S+](/C=C/CCN=C=S)c1cc(C(F)(F)F)cc(C(F)(F)F)c1 (stereo not drawn) , give the reported Activity (μM): inhibitory activity for XPO1 protein (full inhibitory concentration).
Solution: 0.250 µM

Problem: What does the record list as Activity (μM): inhibitory activity for XPO1 protein (full inhibitory concentration) for CC(C)C[S+]([O-])/C=C/CCN=C=S (stereo not drawn) [Compound F-04, reference compound] ?
Solution: 10 to 15 µM

Problem: Any idea what Activity (μM): inhibitory activity for XPO1 protein (full inhibitory concentration) was measured for [O-][S+](/C=C/CCN=C=S)c1nc2ccccc2s1 (stereo not drawn) ?
Solution: 1 to 5 µM

Problem: Could you tell me which Activity (μM): inhibitory activity for XPO1 protein (full inhibitory concentration) is on file for COc1cc([S+]([O-])/C=C/CCN=C=S)cc(OC)c1OC (stereo not drawn) ?
Solution: 0.200 µM

--- query ---
Problem: # get_value(readout='Activity (μM): inhibitory activity for XPO1 protein (full inhibitory concentration)', item= [O-][S+](/C=C/CCN=C=S)c1ccc2ncccc2c1 (stereo not drawn) )
Solution: 0.5 to 1 µM

* * *

Tested on: HMLE-Snail cell line
assay_procedure: Formation of HMLE-Snail cell line spheroids
Assay type: cell-based
reported_conditions: 10 μg/ml, treated for 24 hours; control = 100; read-out: Colony (%): cell colony number of drug-treated group/cell colony number of control group × 100%
Catalogue of molecules with associated activity at 10 µg/mL

Problem: Form field: reported activity at 10 µg/mL of [O-][S+](/C=C/CCN=C=S)c1cncc(C(F)(F)F)c1 (stereo not drawn)
Solution: 35 to 40%

Problem: Can you share its activity at 10 µg/mL? I mean this molecule: [O-][S+](/C=C/CCN=C=S)c1cccnc1 (stereo not drawn)
Solution: 35 to 40%

Problem: GET /values?readout=activity at 10 µg/mL&item= CCC[S+]([O-])/C=C/CCN=C=S (stereo not drawn) [Compound F-01, reference compound]
Solution: 60 to 65%

Problem: Using the record for COc1cc([S+]([O-])/C=C/CCN=C=S)cc(OC)c1OC (stereo not drawn) , report its activity at 10 µg/mL.
Solution: 10 to 15%

Problem: Using the record for [O-][S+](/C=C/CCN=C=S)c1nnnn1-c1ccccc1 (stereo not drawn) , report its activity at 10 µg/mL.
Solution: 10 to 15%

Problem: Sample NS(=O)(=O)c1cc([S+]([O-])/C=C/CCN=C=S)cc(C(F)(F)F)c1 (stereo not drawn) — what was its activity at 10 µg/mL?
Solution: 20 to 25%

Problem: # get_value(readout='activity at 10 µg/mL', item= [O-][S+](/C=C/CCN=C=S)C1CC1 (stereo not drawn) [Compound F-03, reference compound] )
Solution: 55 to 60%

Problem: Dear colleague, I am looking for the recorded activity at 10 µg/mL of the following molecule: [O-][S+](/C=C/CCN=C=S)c1nc2ccc(C(F)(F)F)cc2[nH]1 (stereo not drawn)
Solution: 30 to 35%

Problem: Which activity at 10 µg/mL is listed for [O-][S+](/C=C/CCN=C=S)c1ccc(Br)cc1 (stereo not drawn) ?
Solution: 30 to 35%

Problem: Please report the recorded activity at 10 µg/mL for [O-][S+](/C=C/CCN=C=S)c1ccc2ncncc2c1 (stereo not drawn) .
Solution: 30 to 35%

Problem: I have this molecule here, [O-][S+](/C=C/CCN=C=S)c1ccc2c(c1)Cc1ccccc1-2 (stereo not drawn) , and I need its recorded activity at 10 µg/mL.
Solution: 25 to 30%

Problem: State the recorded activity at 10 µg/mL for this entry: S=C=NCCc1ccccc1 [PEITC, phenylethylisothiocyanate, reference compound]
Solution: 85%

Problem: Can you share its activity at 10 µg/mL? I mean this molecule: COc1ccc(Sc2ccc([S+]([O-])/C=C/CCN=C=S)cc2)cc1 (stereo not drawn)
Solution: 15 to 20%

Problem: I would be grateful if you could share the reported activity at 10 µg/mL for [O-][S+](/C=C/CCN=C=S)c1nc2ccccc2s1 (stereo not drawn) .
Solution: 30 to 35%

Problem: Please report the recorded activity at 10 µg/mL for [O-][S+](/C=C/CCN=C=S)c1ccc2cccc3c2c1CC=C3 (stereo not drawn) .
Solution: 30 to 35%

Problem: Consider the molecule [O-][S+](/C=C/CCN=C=S)c1ccc(-c2ccccc2)cc1 (stereo not drawn) and give its measured activity at 10 µg/mL.
Solution: 20 to 25%

Problem: What does the record list as activity at 10 µg/mL for [O-][S+](/C=C/CCN=C=S)c1ccc2cc3ccccc3cc2c1 (stereo not drawn) ?
Solution: 30 to 35%

Problem: # input molecule: [O-][S+](/C=C/CCN=C=S)c1ccc2ccccc2c1 (stereo not drawn) ; wanted: its activity at 10 µg/mL
Solution: 30 to 35%
